# EXPERIMENTAL_DETAILS: amyloid nucleation score (Sup35N fusion, yeast selection) (log enrichment); library NNK2; higher = more nucleation; inactive = no reads after selection;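 note: zero at mode of non-aggregating sequences after 7 days selection at 30°C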

SUBSTANCE	amyloid nucleation score
DRESRFLYVYHSRY	inactive
CTAYNITYMTATSRGMSC	inactive
RMNWGSNFLEE	-0.663
DLRLTSHIRSFIFAGVPVLF	-1.65
GLSNLR	-0.114
RGADIAVRNFFDYQRRRWCN	0.222
MVCSRYRRVCSNVNG	0.506
TGAGVNTGEFCWVDPRSDYQ	-0.161
TAHYLFTWTLSNVILVCGYD	-0.867
YNQFNFFTG	6.91
THWSCSSKLFGEFGWNFVWK	2.89
HQRSDYV	0.383
MRKWTVSGIRGGRN	0.879
CRTLSGCYQDCGAVNGVLRV	1.22
MLNARELGETNKMLIVWVYL	0.441
RIVCSNSWR	-0.113
SWMAQCLPRYTHIADQSDGS	0.238
SRMAWYFLLGYHLMMEKVHL	inactive
SISAKFSSTSWGGG	6.44
